Biological target: H. halys OBP4 (Halyomorpha halys, UniProt A0A1L2JGP5)
Sequence (A0A1L2JGP5 20-212): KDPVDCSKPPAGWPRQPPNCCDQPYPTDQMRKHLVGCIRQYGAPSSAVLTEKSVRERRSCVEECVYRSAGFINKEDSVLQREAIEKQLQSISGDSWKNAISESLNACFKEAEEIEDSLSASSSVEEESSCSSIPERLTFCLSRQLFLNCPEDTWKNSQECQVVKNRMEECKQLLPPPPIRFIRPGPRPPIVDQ
Assay: Fluorescence binding of probe 1-NPN to OBP (Scatchard)
Settings: dissociation constant of OBP4/1-NPN, 2 μM OBP, 50 mM Tris-HCl pH 7.4; read-out: KOBPx/1-NPN
RECORDED_ENDPOINT: Kd (µM)
Use µM as the unit, but write only the number.

q: What value of Kd has been reported for the following molecule? c1ccc(Nc2cccc3ccccc23)cc1 [1-NPN, N-phenyl-1-naphtylamine]
a: 9.18

* * *

Target: H. halys OBP30 (Halyomorpha halys)
Sequence (A0A1P8P1N8 19-136): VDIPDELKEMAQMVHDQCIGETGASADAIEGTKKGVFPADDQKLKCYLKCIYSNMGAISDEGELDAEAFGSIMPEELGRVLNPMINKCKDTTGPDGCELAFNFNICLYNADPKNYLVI
RECORDED_ENDPOINT: IC50

q: Query for H. halys OBP30 (Halyomorpha halys): what IC50 does the record show for CCCCCCC/C=C/C=O [(E)-2-decenal] ?
a: 16.7 µM

Origin of values: paper PMC6243750
